The values you see were collected from ChEMBL document CHEMBL3885861.

# Species on record: Rattus norvegicus
# Experiment description: Open TG-GATES - Regimen: Daily Repeat
# Type: toxicity, organism-based, Sprague-Dawley
# Set-up: regimen Daily Repeat, gender Male, age 6 weeks
# Condition context: in vivo, po, 0 mg/kg, […], tissue Blood, route gavage, dose level Control, time 7 day
Quantity kind: MCV (fL)
One number for each entry, in fL.

Take a look at these entries with their results.
[
  {
    "Compound": "CCN(CC)C(=S)SSC(=S)N(CC)CC",
    "Measure unit": "fL",
    "MCV": 62.3
  },
  {
    "Compound": "CCO",
    "Measure unit": "fL",
    "MCV": 61.5
  },
  {
    "Compound": "NS(=O)(=O)c1cc(C(=O)O)c(NCc2ccco2)cc1Cl [FUROSEMIDE]",
    "Measure unit": "fL",
    "MCV": 61.5
  },
  {
    "Compound": "O=C(O)c1ccccc1Nc1ccccc1",
    "Measure unit": "fL",
    "MCV": 61
  }
]

I need MCV for every entry listed below, if you could help.
1. O=c1ccc2ccccc2o1
2. CCCCNC(=O)NS(=O)(=O)c1ccc(C)cc1 [TOLBUTAMIDE]
3. COc1ccc([C@@H]2Sc3ccccc3N(CCN(C)C)C(=O)[C@@H]2OC(C)=O)cc1
4. CC(S)C(=O)NCC(=O)O (stereo not drawn)
5. CN(CCOc1ccc(CC2SC(=O)NC2=O)cc1)c1ccccn1.O=C(O)/C=C\C(=O)O (stereo not drawn) [ROSIGLITAZONE MALEATE]
6. Nc1ccc(Cc2ccc(N)cc2)cc1
7. CC(=O)[C@@]1(O)CC[C@H]2[C@@H]3C=C(Cl)C4=CC(=O)CC[C@]4(C)[C@H]3CC[C@@]21C

[reply]
64.1
62.4
64.6
61
63
60.7
61.1

# map each compound to its MCV
1. CCCCC1C(=O)N(c2ccccc2)N(c2ccccc2)C1=O
2. CN(C/C=C/C#CC(C)(C)C)Cc1cccc2ccccc12

[reply]
1: 62.4; 2: 61.4

====

# Organism: Rattus norvegicus
# Experiment description: Open TG-GATES - Regimen: Daily Repeat
# Type: toxicity, organism-based, Sprague-Dawley
# Set-up: regimen Daily Repeat, gender Male, age 6 weeks
# Condition context: in vivo, po, 1000 mg/kg, […], tissue Blood, route gavage, dose level High, time 28 day
Quantity kind: Ret (%)
Numbers only, in %.

Batch request: Ret per item, same order as input.
1. CC(S)C(=O)NCC(=O)O (centres undefined) [TIOPRONIN]
2. CCCCNC(=O)NS(=O)(=O)c1ccc(C)cc1 [TOLBUTAMIDE]
3. CC(=O)[C@@]1(O)CC[C@H]2[C@@H]3C=C(Cl)C4=CC(=O)CC[C@]4(C)[C@H]3CC[C@@]21C [CHLORMADINONE]
4. O=C(O)c1ccccc1Nc1ccccc1 [FENAMIC ACID]

[reply]
1: 3.1; 2: 2.1; 3: 1.9; 4: 7.5

====

Task for the reader: assign each of the following molecules its reported TERMINAL_BW.
# Organism: Rattus norvegicus
# Experiment description: Open TG-GATES - Regimen: Single
# Format: toxicity, organism-based, Sprague-Dawley
# Parameters: regimen Single, gender Male, age 6 weeks
# Condition context: in vivo, po, 0 mg/kg, 6 h, route gavage, dose level Control
One number for each entry, in g.

[
  {
    "Molecule": "C=C[C@H]1C[N@@]2CC[C@H]1C[C@@H]2[C@@H](O)c1ccnc2ccc(OC)cc12 [QUINIDINE]",
    "Measure unit": "g",
    "TERMINAL_BW": 213.3
  },
  {
    "Molecule": "CCCCNC(=O)NS(=O)(=O)c1ccc(C)cc1 [TOLBUTAMIDE]",
    "Measure unit": "g",
    "TERMINAL_BW": 204
  },
  {
    "Molecule": "CC(=O)[C@@]1(O)CC[C@H]2[C@@H]3C=C(Cl)C4=CC(=O)CC[C@]4(C)[C@H]3CC[C@@]21C [CHLORMADINONE]",
    "Measure unit": "g",
    "TERMINAL_BW": 216.7
  },
  {
    "Molecule": "CN(C/C=C/C#CC(C)(C)C)Cc1cccc2ccccc12 [TERBINAFINE]",
    "Measure unit": "g",
    "TERMINAL_BW": 222.8
  }
]

[ask] Tell me the measured TERMINAL_BW of Nc1ccc(Cc2ccc(N)cc2)cc1 , please.
[reply] 206.4
